- TEST TARGET: T1, VARC (cytoplasmic acidic terminal sequence domain of P. falciparum erythrocyte membrane protein-1, PfEMP1) (Plasmodium falciparum, UniProt Q8IAK2 2467-2757)
- T1 construct: also called ATS; cytoplasmic domain of PfEMP1; source: E. coli BL21 (DE3) CodonPlus, purified (Ni-NTA, gel permeation chromatography on Superdex 75)
- T1 sequence: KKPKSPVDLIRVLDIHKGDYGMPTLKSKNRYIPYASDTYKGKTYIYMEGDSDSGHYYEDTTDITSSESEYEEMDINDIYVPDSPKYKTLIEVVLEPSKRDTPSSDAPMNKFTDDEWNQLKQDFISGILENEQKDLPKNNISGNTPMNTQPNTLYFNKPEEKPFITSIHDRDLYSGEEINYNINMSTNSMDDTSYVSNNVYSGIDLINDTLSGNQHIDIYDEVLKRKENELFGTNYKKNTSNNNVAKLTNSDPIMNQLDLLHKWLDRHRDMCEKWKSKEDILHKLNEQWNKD
- ASSAY COMMENT: NMR titration; 2D [15N,1H] HSQC of 10 μM 15N-labelled K2A1 with unlabelled VARC added at 1:1, 1:2.5, 1:5, 1:7.5 and 1:10 molar ratios; 278 K; 10 mM sodium phosphate pH 6.2, 5 mM DTT, no additional salt (ionic strength 0.013 M); Kd by fit of amide chemical shift perturbations; the 1:5 complex also measured at 20, 50, 100 and 150 mM NaCl
- MEASUREMENT PARAMETERS: both partners purified
REPORTED ENDPOINT: Kd

Request: May I ask what Kd has been recorded for KHHSSKKHEGNDGEGEKKKKSKKHKDHDGEKKKSKKHKDNEDAESVKSKK (domain or fragment, also called truncated K2A; source: E. coli BL21 (DE3) CodonPlus, purified (Ni-NTA, gel permeation chromatography on Superdex 75); not shown: His6, C-terminal, kept) ?
Response: 7 to 15 µM
